Target: T1, CRBN, Q96SW2;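 further: pooled lentiviral library of zinc finger degron-EGFP fusions in mCherry-positive Jurkat cells, FACS-sorted after compound exposure, with degron abundance counted by next-generation sequencing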
T1 chain: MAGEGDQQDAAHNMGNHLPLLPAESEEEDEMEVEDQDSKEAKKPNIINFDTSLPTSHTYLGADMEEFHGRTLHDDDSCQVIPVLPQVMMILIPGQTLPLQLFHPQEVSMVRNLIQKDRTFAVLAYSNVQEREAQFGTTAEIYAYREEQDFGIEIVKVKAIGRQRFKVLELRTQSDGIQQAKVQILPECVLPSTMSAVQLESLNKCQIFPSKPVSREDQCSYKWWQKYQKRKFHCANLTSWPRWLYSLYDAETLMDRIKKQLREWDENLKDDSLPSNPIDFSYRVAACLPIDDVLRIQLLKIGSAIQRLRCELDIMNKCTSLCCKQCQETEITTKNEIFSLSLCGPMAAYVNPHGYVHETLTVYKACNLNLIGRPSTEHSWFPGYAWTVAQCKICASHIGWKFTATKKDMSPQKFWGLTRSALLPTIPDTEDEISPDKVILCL
Assay: log2 fold change of degron read counts, EGFP-low vs EGFP+ sorted cells (limma voom), compound-induced degradation; higher = more compound-induced degradation of the degron-EGFP fusion; degrons are variants of IKZF1/3 zinc finger 2; compound dose not given here
Settings: Jurkat; 18 h; compound: compound 19 (5-tert-butyl-thalidomide)
Whole data set: some 8,300 sequences, median “log2 fold change of degron read counts, EGFP-low vs EGFP+ sorted cells (limma voom), compound-induced degradation” near -1.1, cut for the highest 2% near 3.2. The entries come from a sample that favours the highest values as a whole.
Each entry below carries its recorded log2 fold change of degron read counts.
Answer using only a numeral; do not append any unit.

Consider FLCEICGAKFTQKGNLLRHIKL [46F_47L_49E_50I_52G_53A_54K_55F_67L_, Q9UKT9] . Its measured log2 fold change of degron read counts is 0.834

Consider FCCDQCGAQFTQKGNLLRHIKL [46F_47C_49D_50Q_52G_53A_54Q_55F_67L_, Q9UKT9] . Its measured log2 fold change of degron read counts is -1.9

Consider FRCDQCGACFTQKGNLLRHIKL [46F_47R_49D_50Q_52G_53A_54C_55F_67L_, Q9UKT9] . Its measured log2 fold change of degron read counts is -2.93

Consider FECEICGAKFTQKGNLLRHIKL [46F_47E_49E_50I_52G_53A_54K_55F_67L_, Q9UKT9] . Its measured log2 fold change of degron read counts is 0.521

Consider FCCNVCGAPFTQKGNLLRHIKL [46F_47C_49N_50V_52G_53A_54P_55F_67L_, Q9UKT9] . Its measured log2 fold change of degron read counts is 1.3

Consider FICEVCGAPFTQKGNLLRHIKL [46F_47I_49E_50V_52G_53A_54P_55F_67L_, Q9UKT9] . Its measured log2 fold change of degron read counts is 2.03

Consider FYCDQCGAFFTQKGNLLRHIKL [46F_47Y_49D_50Q_52G_53A_54F_55F_67L_, Q9UKT9] . Its measured log2 fold change of degron read counts is -0.965

Consider FQCEICGAKFTQKGNLLRHIKL [46F_47Q_49E_50I_52G_53A_54K_55F_67L_, Q9UKT9] . Its measured log2 fold change of degron read counts is 0.93

---
Consider FCCEICGAKFTQKGNLLRHIKL [46F_47C_49E_50I_52G_53A_54K_55F_67L_, Q9UKT9] . Its measured log2 fold change of degron read counts is 3.35

Consider FNCEICGAKFTQKGNLLRHIKL [46F_47N_49E_50I_52G_53A_54K_55F_67L_, Q9UKT9] . Its measured log2 fold change of degron read counts is 2.53

Consider FKCEICGAKFTQKGNLLRHIKL [46F_47K_49E_50I_52G_53A_54K_55F_67L_, Q9UKT9] . Its measured log2 fold change of degron read counts is -1.09

Consider FICNVCGALFTQKGNLLRHIKL [46F_47I_49N_50V_52G_53A_54L_55F_67L_, Q9UKT9] . Its measured log2 fold change of degron read counts is -2.12

Consider FMCEVCGAVFTQKGNLLRHIKL [46F_47M_49E_50V_52G_53A_54V_55F_67L_, Q9UKT9] . Its measured log2 fold change of degron read counts is -1.47

Consider FFCEICGAKFTQKGNLLRHIKL [46F_47F_49E_50I_52G_53A_54K_55F_67L_, Q9UKT9] . Its measured log2 fold change of degron read counts is 3.78

Consider FDCEICGAKFTQKGNLLRHIKL [46F_47D_49E_50I_52G_53A_54K_55F_67L_, Q9UKT9] . Its measured log2 fold change of degron read counts is 2.14
